Target: human A2a receptor (Homo sapiens)
Sequence (P29274 whole entry): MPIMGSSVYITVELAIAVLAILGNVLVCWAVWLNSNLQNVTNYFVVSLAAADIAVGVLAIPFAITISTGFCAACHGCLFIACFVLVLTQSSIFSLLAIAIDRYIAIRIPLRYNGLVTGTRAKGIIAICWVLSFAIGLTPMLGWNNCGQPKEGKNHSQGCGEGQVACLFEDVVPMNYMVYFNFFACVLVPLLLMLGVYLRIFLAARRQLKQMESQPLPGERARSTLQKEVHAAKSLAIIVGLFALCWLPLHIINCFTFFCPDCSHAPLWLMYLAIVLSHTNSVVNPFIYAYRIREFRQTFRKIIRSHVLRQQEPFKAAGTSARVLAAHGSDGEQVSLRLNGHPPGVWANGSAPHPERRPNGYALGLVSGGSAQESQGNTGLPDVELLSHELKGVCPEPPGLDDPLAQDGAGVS
Assay: A2a receptor competition binding assay using Scintillation Proximity technology
Conditions: membranes from HEK293 cells expressing human A2a receptor; 0.5 nM tritiated radioligand; SPA beads; 1 h room temperature
Criterion: EC50 strictly less than 6 nM. Met: satisfied. Not met: not satisfied.

Here's what some known entries look like.
| Compound | Test system | Group label |
| --- | --- | --- |
| COc1cccc2c1nc(N)n1nc(CCN3CCc4ncncc4C3)nc21 | human A2a receptor (Homo sapiens) | satisfied |
| COc1cccc2c1nc(N)n1nc(CCN3Cc4oc(C)nc4CC3C)nc21 (centres unmarked) | human A2a receptor (Homo sapiens) | satisfied |

Ask: Does the reported EC50 of Nc1nc2cc(F)ccc2c2nc(CCN3Cc4ccc(F)cc4C3)nn12 stay below 6 nM?
Reply: not satisfied

Ask: Also need CCc1nnc2n1CCN(CCc1nc3c4cccc(F)c4nc(N)n3n1)C2 , thanks.
Reply: not satisfied

Ask: Subsequent entry: COc1cccc2c1nc(N)n1nc(CCN3CCCc4c3c(C(F)(F)F)nn4C)nc21
Reply: not satisfied

Ask: Can you handle COc1cccc2c1nc(N)n1nc(CN3CCCc4ccccc4C3)nc21 next?
Reply: not satisfied

Ask: Continue with COc1cccc2c1nc(N)n1nc(CCN3Cc4ccc(N5CCCC5)nc4C3)nc21
Reply: not satisfied

Ask: Now try COc1cccc2c1nc(N)n1nc(CN3CCc4ccc(-c5cnn(C)c5)cc4C3)nc21 .
Reply: not satisfied

Ask: Here is the next compound: Cc1cccc2c1nc(N)n1nc(CN3CCc4cccnc4C3)nc21
Reply: not satisfied
